Parameter: IC50. Scope: all listed entries.
Target: recombinant human 15-PGDH (Homo sapiens (Human), UniProt P15428)
Sequence (P15428 whole entry): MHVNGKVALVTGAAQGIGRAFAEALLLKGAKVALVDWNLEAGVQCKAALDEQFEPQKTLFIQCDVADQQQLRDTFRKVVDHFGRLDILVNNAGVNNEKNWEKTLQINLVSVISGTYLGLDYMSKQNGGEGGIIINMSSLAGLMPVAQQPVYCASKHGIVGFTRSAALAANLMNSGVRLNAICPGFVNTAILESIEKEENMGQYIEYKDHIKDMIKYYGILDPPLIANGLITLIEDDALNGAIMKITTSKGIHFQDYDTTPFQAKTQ
Test: 15-PGDH enzyme inhibition test
Settings: 4 nM recombinant human 15-PGDH, 30 μM PGE2, 1 mM NAD+, fluorescence 340/440 nm after 60 min

Answered examples (8):
INSERT INTO results (molecule, result_type, reported_value) VALUES
  ('O=C(c1ccc2c(-c3ccc4c(=O)[nH]ncc4c3)c(F)ccc2c1)N1CCC(F)(F)CC1 [compound 87]', 'IC50', '< 3 nM'),
  ('Cn1c(=O)[nH]c(=O)c2ccc(-c3cccc4cc(C(=O)N5CCC(F)(F)CC5)cnc34)cc21 [compound 159]', 'IC50', '< 3 nM'),
  ('O=C(O)c1ncc(-c2cccc3cc(C(=O)N4CCC(F)(F)CC4)ccc23)cc1F [compound 130]', 'IC50', '< 3 nM'),
  ('O=C(c1ccc2c(-c3cc4cc[nH]c(=O)c4cn3)cccc2c1)N1CCC(F)(F)CC1 [compound 111]', 'IC50', '< 3 nM'),
  ('O=C(O)c1c(F)cc(-c2cccc3cc(C(=O)N4CCC(F)(F)CC4)ccc23)cc1F [compound 126]', 'IC50', '< 3 nM'),
  ('Cc1c(-c2cccc3cc(C(=O)N4CCC(F)(F)CC4)ccc23)ccc2ncccc12 [compound 13]', 'IC50', '3 to 10 nM'),
  ('O=C(c1ccc2c(N3CCn4c(nn(CC(F)F)c4=O)C3)cccc2c1)N1CCCC2CC21 (centres unmarked) [compound 6]', 'IC50', '< 3 nM'),
  ('Cn1ccc2c(c1=O)CCN(c1cccc3cc(C(=O)N4CCCCC4)ccc13)C2 [compound 107]', 'IC50', '< 3 nM');

Q: IC50 of CCN1Cc2cc(-c3cccc4cc(C(=O)N5CCC(F)(F)CC5)ccc34)ccc2C1=O [compound 66] on recombinant human 15-PGDH (Homo sapiens (Human), UniProt P15428)?
Ans: < 3 nM

Q: IC50 of O=C(c1cnc2c(-c3ccn4c(=O)ccnc4c3)cccc2c1)N1CCC(F)(F)CC1 [compound 160] on recombinant human 15-PGDH (Homo sapiens (Human), UniProt P15428)?
Ans: < 3 nM

Q: IC50 of CN1Cc2cc(-c3coc4cc(C(=O)N5CCCCC5)ccc34)ccc2C1=O [compound 9] on recombinant human 15-PGDH (Homo sapiens (Human), UniProt P15428)?
Ans: < 3 nM

Q: IC50 of COCn1nc2cc(-c3cccc4cc(C(=O)N5CCC(F)(F)CC5)ccc34)ccn2c1=O [compound 129] on recombinant human 15-PGDH (Homo sapiens (Human), UniProt P15428)?
Ans: < 3 nM

Q: IC50 of Cn1nc2cc(-c3cccc4cc(C(=O)N5CCC(F)(F)CC5)ccc34)ccn2c1=O [compound 65] on recombinant human 15-PGDH (Homo sapiens (Human), UniProt P15428)?
Ans: < 3 nM

Q: IC50 of O=C(c1cnc2c(-c3ccc4c(=O)[nH]oc4c3)cccc2c1)N1CCC(F)(F)CC1 [compound 141] on recombinant human 15-PGDH (Homo sapiens (Human), UniProt P15428)?
Ans: < 3 nM

Q: IC50 of O=C(c1ccc2c(-c3ccc4c(=O)[nH]ccc4c3)cccc2c1)N1CCC(F)(F)CC1 [compound 110] on recombinant human 15-PGDH (Homo sapiens (Human), UniProt P15428)?
Ans: < 3 nM

Q: IC50 of Cn1ccc2cc(-c3c(F)ccc4cc(C(=O)N5CCC(F)(F)CC5)ccc34)ccc2c1=O [compound 158] on recombinant human 15-PGDH (Homo sapiens (Human), UniProt P15428)?
Ans: < 3 nM
